biological target: Homeobox protein Hox-A13 (Mus musculus) (UniProt Q62424); assay: inhibitors of HoxA13-DNA binding, primary screen, biochemical, fluorescence polarization, labeled oligonucleotide (AID 1185); conditions: 15 min, higher = more signal, called active from +8 up or from −8 down
Sequence (Q62424 whole entry, looked up): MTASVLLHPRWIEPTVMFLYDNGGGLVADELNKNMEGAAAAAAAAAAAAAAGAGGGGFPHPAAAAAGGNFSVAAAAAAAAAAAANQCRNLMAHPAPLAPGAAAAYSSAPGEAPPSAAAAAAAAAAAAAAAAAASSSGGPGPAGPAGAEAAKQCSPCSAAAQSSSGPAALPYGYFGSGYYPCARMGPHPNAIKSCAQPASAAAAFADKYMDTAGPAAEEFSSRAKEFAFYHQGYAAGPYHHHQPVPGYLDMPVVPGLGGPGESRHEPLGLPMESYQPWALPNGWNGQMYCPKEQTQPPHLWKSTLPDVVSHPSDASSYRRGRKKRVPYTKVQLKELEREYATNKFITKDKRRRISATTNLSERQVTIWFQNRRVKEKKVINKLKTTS
Output rule met for z-score not less than -4; output rule not met otherwise.

[
  {
    "Compound": "COc1ccc(C#Cc2ccc3c(c2)[C@]2(C(=O)N3)[C@H](c3ccccc3OCCO)N3[C@H](c4ccccc4)[C@H](c4ccccc4)OC(=O)[C@H]3[C@@H]2C(=O)O)cc1",
    "System Name": "Homeobox protein Hox-A13 (Mus musculus) (UniProt Q62424)",
    "Classification": "rule not met"
  },
  {
    "Compound": "COc1ccc(C(=O)O[C@H]2CC[C@]3(C)C4=C(CCC3C2(C)C)[C@]2(C)CC[C@H]([C@H](C)CCCC(C)C)[C@@]2(C)CC4)cc1 (some centres not stated)",
    "System Name": "Homeobox protein Hox-A13 (Mus musculus) (UniProt Q62424)",
    "Classification": "rule met"
  },
  {
    "Compound": "COC(=O)[C@@]1(Cc2ccc(OC)cc2)[C@H]2c3cc(C(=O)N4CCCC4)n(Cc4ccc(OC)c(OC)c4)c3C[C@H]2CN1C(=O)c1ccccc1",
    "System Name": "Homeobox protein Hox-A13 (Mus musculus) (UniProt Q62424)",
    "Classification": "rule not met"
  },
  {
    "Compound": "CCCCC(O)C1C=CC2C(=O)N(c3ccccc3)C(=O)C2N1Nc1ccccc1F (configuration not stated)",
    "System Name": "Homeobox protein Hox-A13 (Mus musculus) (UniProt Q62424)",
    "Classification": "rule met"
  },
  {
    "Compound": "O=C1OCCC/C=C\\[C@H]2OC34C=CCN(CCN5CCOCC5)C(=O)[C@H]3N(CCCO)C(=O)[C@@H]4C12 (some centres not stated)",
    "System Name": "Homeobox protein Hox-A13 (Mus musculus) (UniProt Q62424)",
    "Classification": "rule not met"
  },
  {
    "Compound": "Cc1ccc(S[C@]2(C(=O)NCC(F)(F)F)CC(=O)N(C(C)C)[C@@H]2c2ccc(CO)cc2I)cc1",
    "System Name": "Homeobox protein Hox-A13 (Mus musculus) (UniProt Q62424)",
    "Classification": "rule met"
  },
  {
    "Compound": "O=C(C1N=C(c2ccc(OCCCO)cc2)N(c2ccccc2)O1)N1CCOCC1 (configuration not stated)",
    "System Name": "Homeobox protein Hox-A13 (Mus musculus) (UniProt Q62424)",
    "Classification": "rule met"
  }
]

* * *

Catalogue of composite z-score values
assay: compound binding in COS7 lysate, probe aLAP1, primary screen, cell lysate, small-molecule microarray (AID 1124); details: probe aLAP1, fluorescence, higher = more signal;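 note: lysate comes from COS7 cells expressing LAP1 and is applied at 0.3 µg/mL; score merges spot fluorescence near 667 nm with signal-to-noise over triplicate slides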
Observable: composite z-score

[
  {
    "Compound": "C=CCN1C(=O)[C@]2(O[C@H](CCO)[C@@H]([Si](C)(C)c3ccc(OC)cc3)[C@@H]2C)c2cc(N3C(=O)c4cccc5cccc3c45)ccc21",
    "Observable": "composite z-score",
    "Val": 0.0553
  },
  {
    "Compound": "CCOC1=C2C(CN(S(=O)(=O)c3ccc(C)cc3)C2c2ccc(C)cc2)C2C(=O)N(c3ccccc3)C(=O)C2C1 (centres undefined)",
    "Observable": "composite z-score",
    "Val": 0.377
  },
  {
    "Compound": "C#CCN(CC=C(C)C)[C@H](CO)c1ccccc1",
    "Observable": "composite z-score",
    "Val": -0.277
  },
  {
    "Compound": "COCCOC(=O)N1C(=O)[C@@]2(c3cc(C#Cc4ccc(OC)cc4)ccc31)[C@H](C(=O)N1CCCCCCC1)[C@H]1C(=O)O[C@H](c3ccccc3)[C@H](c3ccccc3)N1[C@@H]2c1ccc(OCCO)cc1",
    "Observable": "composite z-score",
    "Val": 0.913
  }
]
